biological target: T1, human CD33 antigen (human, UniProt P20138 18-259, limits assumed); experiment: SPR (Biacore T200), 37 C; KD at 10 uM MTX / KD at 0 uM MTX
T1 construct: whole entry named; also called Siglec-3
T1 sequence (P20138 18-259 limits assumed): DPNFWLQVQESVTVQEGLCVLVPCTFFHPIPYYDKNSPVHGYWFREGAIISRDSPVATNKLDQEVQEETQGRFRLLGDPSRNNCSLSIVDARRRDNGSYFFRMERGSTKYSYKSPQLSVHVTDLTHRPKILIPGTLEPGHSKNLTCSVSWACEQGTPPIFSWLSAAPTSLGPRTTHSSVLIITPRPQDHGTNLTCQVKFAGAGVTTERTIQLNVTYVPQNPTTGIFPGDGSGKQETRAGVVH
# Ratio: KD with MTX / KD without MTX listing for each entry below
Quick one: just the number, no unit, thanks!

# BINDER, RECORDED METRIC, RESULT NUMBER
rows = [
    ("P01_A09 scFv-Fc fusion (scFv, V domains shown, Tested as scFv-Fc fusion) VH: QVQLVESGGGLVQAGGSLRLSCAASRRSSRSWAMHWVRQAPGKGLEWVAVISYDGRLKYYADSVKGRFTISRDNAEYLVYLQMNSLRAEDTAVYYCAAERPTSDGSTGGMDVWGQGTLVTVSS VL: DIQMTQSPSSLSASVGDRVTITCRASQSISSYLNWYQQKPGKAPKLLIYGASTLQSGVPSRFSGSGSGTDFTLTISSLQPEDFATYYCQQSYSSGTFGQGTKVEIK", "Ratio: KD with MTX / KD without MTX", 8.5),
]

Give the measured Ratio: KD with MTX / KD without MTX of P01_C05 scFv-Fc fusion (scFv, V domains shown, Tested as scFv-Fc fusion) VH: QVQLVESGGGLVQAGGSLRLSCAASRRSSRSWAMHWVRQAPGKGLEWVAVISYDGRLKYYADSVKGRFTISRDNAEYLVYLQMNSLRAEDTAVYYCAAEQWGTNDGPDGGMDYWGQGTLVTVSS VL: DIQMTQSPSSLSASVGDRVTITCRASQTIGSHLNWYQQKPGKAPKLLIYGTSNLQSGVPSRFSGSGSGTDFTLTISSLQPEDFATYYCQQSYSSPLTFGQGTKVEIK .
0.5

What about this binder? P08_C08 scFv-Fc fusion (scFv, V domains shown, Tested as scFv-Fc fusion) VH: QVQLVESGGGLVQAGGSLRLSCAASRRSSRSWAMHWVRQAPGKGLEWVAVISYDGRLKYYADSVKGRFTISRDNAEYLVYLQMNSLRAEDTAVYYCAAEGSGSTDGSGAIDVWGQGTLVTVSS VL: DIQMTQSPSSLSASVGDRVTITCRASQSIGSYLNWYQQKPGKAPKLLIYAASSLQSGVPSRFSGSGSGTDFTLTISSLQPEDFATYYCQQSYSSGSFGQGTKVEIK
7.6
